property_measured: melting point

Guide cases for melting point, answers given:
Lab book: melting point of `COC(=O)COCc1cc(C(C)(C)C)c(O)c(C(C)(C)C)c1` noted as 132 to 133 °C

The value of melting point measured for the molecule OC1CSC(Oc2ccc(-c3cncnc3)cc2)C(O)C1O (stereo unspecified) turned out to be 196 to 200 °C

What the record says about `Nc1nc(Oc2c(Cl)cccc2Cl)nc2nc(-c3ccco3)nn12` : melting point is 270 to 272 °C

Recorded melting point (molecule `O=C(NC(=O)c1c(F)cccc1Cl)Nc1ccc(S(=O)(=O)C(F)(F)C(F)F)cc1F` ): 176 to 177 °C

melting point reported for this molecule `OCc1nccc(N2CCCCC2)c1Cl` : 68 to 70 °C

Short answer for `O=c1[nH]c2cc(Cl)ccc2c(=O)c2c(-c3ccccc3)n[nH]c12` : melting point was 328 to 331 °C

Per the record, CC1(C)C(C=C(Cl)Cl)C1C(N)=O (stereo unspecified) has melting point of 78 to 81 °C

Form field melting point, entry CC12CCCC1C1CCc3cc(C(=O)O)ccc3C1CC2 (stereo unspecified) : 235 to 240 °C

Further cases:
GET /value?item= CCCC1CCCCc2c1oc(=O)c(C(c1ccccc1)C1CC1)c2O (stereo unspecified) &field=melting point returns 60 to 65 °C

The molecule identified as O=C1N[C@H](Cc2ccc(F)cc2)[C@H](c2ccc(F)cc2)O1 (racemic) registered its melting point at 197 to 198 °C

Query `CCN(CC)CCNc1ccnc2cc(C(F)(F)F)ccc12` yields melting point of 122 to 124 °C

Kindly note the recorded melting point for `CCOC(=O)c1cc2cc(OC(F)(F)F)cc(NS(=O)(=O)c3cccs3)c2[nH]1` , which is 192 to 193 °C

The molecule `CC(C)(C)OC(=O)N[C@@H]1C(=O)N(OCc2ccccc2)C1(C)C` showed melting point equal to 121 to 122 °C

---

property_measured: melting point

# annotated cases, reported melting point shown
melting point reading for `Cc1cc(OCc2ccc(-c3ccc(OC(F)(F)F)cc3)nc2C2CC2)ccc1OC(C)(C)C(=O)O` : 131 to 133 °C

`CCOC(=O)c1cc(=O)c2cccc(COc3ccc(OCc4ccc5ccccc5n4)cc3)c2o1` has a reported melting point of 124 to 127 °C

response.value for `CCc1[nH]n(C2CCCC2)c2nc(-c3cc(C)nc(Cl)c3)nc(=O)c1-2` (field: melting point) = 277 to 278 °C

Entry OP(O)C(C=Cc1ccccc1)NC(c1ccccc1)c1ccccc1 (stereo not drawn) — recorded melting point = 202 to 203 °C

Further cases:
Recorded melting point (molecule `Cn1c(=O)cn[nH]c1=O` ): 173 °C

// `Cc1c(O)ccc2c1C(C)(C)CC2` : melting point value = 92 to 93 °C

---

Recorded melting point by entry

Sample records with melting point:
Consider `COC(=O)[C@H](O)[C@@H](N)c1ccccc1` . Its measured melting point is 101 °C

In plain terms, `CN(C)c1n[nH]c(=O)n1N(C)C` has a documented melting point of 93 °C

Consider COc1ccccc1C1(O)C(=O)Nc2ccc(C)c(Cl)c21 (configuration not stated) . Its measured melting point is 262 to 263 °C

---
Reported melting point for `NS(=O)(=O)Oc1cccc(C(F)(F)F)c1` was 100 to 102 °C

Looking up `O=C(NCCN1CCN=C1c1ccccn1)Nc1ccc(C(=O)O)cc1` , I found its melting point recorded as 220 to 223 °C

# compound `CNc1nc(C)c(-c2ccnc(Nc3ccc(N4CCNCC4)cc3)n2)s1` ; its melting point = 253 to 255 °C

response.value for CCOC(=O)CC(CC(=O)Nc1ccc(Cl)c(C=C(Cl)C(=O)OCC)c1)C(F)(F)F (configuration not stated) (field: melting point) = 115 to 117 °C

Entry CC(C1CC1)N1C(=O)c2cc([N+](=O)[O-])cnc2C1=O (configuration not stated) — recorded melting point = 96 to 99 °C

compound `Cc1cc(C)c(C=O)c(O)c1C` , melting point observed: 74 to 75.5 °C

compound `CCNc1ccc(NCCO)cc1[N+](=O)[O-]` , melting point observed: 106 °C

# compound `COC(=O)CN(N)CC(=O)OC` ; its melting point = 166 °C

Lookup result for `O=[N+]([O-])c1ccc(S)c(Cl)c1` ; measured melting point: 77 to 78 °C
